Ki reference
target: human recombinant melanocortin-4 receptor (human), P32245; experiment: competitive inhibition of [I125]-NDP-α-MSH, hMC4-R HEK-293 membranes; conditions: remark: other sources report otherwise
Sequence (P32245 whole entry): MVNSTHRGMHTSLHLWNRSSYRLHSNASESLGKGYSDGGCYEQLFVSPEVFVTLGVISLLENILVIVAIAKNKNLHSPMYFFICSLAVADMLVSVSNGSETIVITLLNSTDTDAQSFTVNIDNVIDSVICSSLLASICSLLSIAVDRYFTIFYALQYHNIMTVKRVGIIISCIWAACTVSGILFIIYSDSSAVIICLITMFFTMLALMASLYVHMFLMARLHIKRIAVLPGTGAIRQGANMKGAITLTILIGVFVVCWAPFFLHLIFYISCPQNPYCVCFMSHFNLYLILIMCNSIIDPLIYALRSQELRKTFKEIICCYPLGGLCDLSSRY
Bridge positions count the residues as written; N and C are the ends. Square brackets hold non-standard residues; d marks the D form. Primed or numbered codes have the meaning given here. * marks the point of attachment. Cyclopentylacetyl′ = not defined here; Cyclohexylacetyl = O=C(CC1CCCCC1)*; Dab = NCC[C@H](N)C(=O)O
Express the reported value numerically, then name its unit.

Prompt: Dear colleague, I am looking for the recorded Ki of the following binder: RDXFRWK (HELM PEPTIDE1{[ac].R.D.[Dab].[dF].R.W.K.[C1CC1N[*:1]]}$PEPTIDE1,PEPTIDE1,3:R3-8:R3$$$V2.0; SMILES CC(=O)N[C@@H](CCCNC(=N)N)C(=O)N[C@H]1CC(=O)NCCCC[C@@H](C(=O)NC2CC2)NC(=O)[C@H](Cc2c[nH]c3ccccc23)NC(=O)[C@H](CCCNC(=N)N)NC(=O)[C@@H](Cc2ccccc2)NC(=O)[C@H](CCN)NC1=O) [Ac-Arg-cyclo(Asp-Dab-D-Phe-Arg-Trp-Lys)-NH-cyclopropyl]
Completion: 3 nM

Prompt: # iterate: {Cyclopentylacetyl′}-RD[Dab][dF]RWK-NH2 (lactam 2-7) [Cyclopentylacetyl-Arg-cyclo(Asp-Dab-D-Phe-Arg-Trp-Lys)-NH2]
Completion: 0.8 nM

Prompt: Next record, please: RDXFRWK (HELM PEPTIDE1{[ac].R.D.[Dab].[dF].R.W.K.[am]}|PEPTIDE2{[ac]}$PEPTIDE1,PEPTIDE2,4:R3-1:R2|PEPTIDE1,PEPTIDE1,3:R3-8:R3$$$V2.0; SMILES CC(=O)NCC[C@@H]1NC(=O)[C@@H](NC(=O)[C@H](CCCNC(=N)N)NC(C)=O)CC(=O)NCCCC[C@@H](C(N)=O)NC(=O)[C@H](Cc2c[nH]c3ccccc23)NC(=O)[C@H](CCCNC(=N)N)NC(=O)[C@@H](Cc2ccccc2)NC1=O) [Ac-Arg-cyclo(Asp-Dab(Acetyl)-D-Phe-Arg-Trp-Lys)-NH2]
Completion: 33 nM

Prompt: Cyclohexylacetyl-RD[Dab][dF]RWK-NH2 (lactam 2-7) [Cyclohexylacetyl-Arg-cyclo(Asp-Dab-D-Phe-Arg-Trp-Lys)-NH2] , same question.
Completion: 1 nM
